Sequence of the target: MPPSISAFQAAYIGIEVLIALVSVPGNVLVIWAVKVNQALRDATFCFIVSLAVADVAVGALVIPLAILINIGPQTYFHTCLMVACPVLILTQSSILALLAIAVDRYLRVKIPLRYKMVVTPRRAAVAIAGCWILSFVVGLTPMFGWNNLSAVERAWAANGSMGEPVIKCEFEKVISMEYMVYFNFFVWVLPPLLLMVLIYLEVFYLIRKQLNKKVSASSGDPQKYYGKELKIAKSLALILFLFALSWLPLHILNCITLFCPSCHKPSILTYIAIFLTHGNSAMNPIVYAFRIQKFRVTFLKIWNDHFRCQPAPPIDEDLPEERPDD
Dear colleague, classification is by Ki, with ranges listed here: lowest = under 300 nM, middle = from 300 nM up to 800 nM, highest = 800 nM and over

COMPOUND STRUCTURE	CATEGORY LABEL
O=C(Nc1nc(-c2ccccc2)c(-c2nc3ccccc3c(=O)[nH]2)s1)c1ccco1	highest
O=C(Nc1nc(-c2ccccc2)c(-c2ccncc2)s1)c1ccco1	lowest
Cc1sc2nc(-c3sc(NC(=O)c4ccco4)nc3-c3ccccc3)nc(N)c2c1C	highest
COc1ccc(C(=O)Nc2nc(-c3ccccc3)c(C(=O)c3cccnc3)s2)cc1	highest
Cc1ccc(C(=O)Nc2nc(-c3ccccc3)c(-c3nc(N)c4c5c(sc4n3)CCCC5)s2)cc1	highest
Cc1ccc(C(=O)Nc2nc(-c3ccccc3)c(-c3nc(N)nc(N(C)C)n3)s2)cc1	highest
Nc1nc(-c2sc(NC(=O)c3ccco3)nc2-c2ccccc2)nc2sc3c(c12)CCCC3	highest
O=C(Nc1nc(-c2ccccc2)c(C(=O)c2cccnc2)s1)c1ccco1	lowest
COc1ccc(C(=O)Nc2nc(-c3ccccc3)c(-c3nc(N)c4c5c(sc4n3)CCCC5)s2)cc1	highest
CN(C)c1nc(N)nc(-c2sc(NC(=O)c3ccco3)nc2-c2ccccc2)n1	middle
O=C(Nc1nc(-c2ccccc2)c(-c2ccccn2)s1)c1ccco1	lowest
COc1ccc(C(=O)Nc2nc(-c3ccccc3)c(C(=O)c3ccccn3)s2)cc1	middle
O=C(Nc1nc(-c2ccccc2)c(C(=O)c2ccccn2)s1)c1ccco1	middle
